- Test Target: Human immunodeficiency virus type 1 reverse transcriptase (Human immunodeficiency virus 1)
- Protocol: Inhibition against HIV- reverse transcriptase in cell culture at 20 ug/mL
Returns class 1 if the recorded inhibition is greater than or equal to 10%, and class 0 otherwise.

Worked cases, answers included:
Compound: O=C(O[C@@H]1[C@@H](c2c(O)cc(O)c3c2O[C@H](c2ccc(O)c(O)c2)[C@H](OC(=O)c2cc(O)c(O)c(O)c2)C3)c2c(O)cc(O)cc2O[C@@H]1c1ccc(O)c(O)c1)c1cc(O)c(O)c(O)c1
Category: class 0
//
Compound: O=C1O[C@H]2[C@H](OC(=O)c3cc(O)c(O)c(O)c3)[C@@H](OC(=O)c3cc(O)c(O)c4c3[C@@H]3C1=CC(=O)C(O)(O)C3(O)O4)[C@H](OC(=O)c1cc(O)c(O)c(O)c1)O[C@@H]2COC(=O)c1cc(O)c(O)c(O)c1 (some centres undefined)
Category: class 1

In: Threshold query (inhibition >= 10%) on O=C(O[C@@H]1O[C@H]2COC(=O)c3cc(O)c(O)c(O)c3-c3c(O)c(O)c(O)c(Oc4cc(C(=O)O[C@H]5O[C@H]6COC(=O)c7cc(O)c(O)c(O)c7-c7c(cc(O)c(O)c7O)C(=O)O[C@H]6[C@@H]6OC(=O)c7cc(O)c(O)c(O)c7-c7c(cc(O)c(O)c7O)C(=O)O[C@H]56)cc(O)c4O)c3C(=O)O[C@H]2[C@@H]2OC(=O)c3cc(O)c(O)c(O)c3-c3c(cc(O)c(O)c3O)C(=O)O[C@H]12)c1cc(O)c(O)c(O)c1
Out: class 1

----------
- System: Human immunodeficiency virus 1
- Protocol: Anti-HIV activity in cell culture assay expressed as IC50 values.
- Format: functional, organism-based
- Stated Conditions: Human immunodeficiency virus 1
Quantity: IC50 (µM)
Give a bare numeral; the unit µM is implied.

Smiles Text: O=C(OC[C@@H]1O[C@@H](OC(=O)c2cc(O)c(O)c(O)c2)[C@@H](OC(=O)c2cc(O)c(O)c(O)c2)[C@@H](OC(=O)c2cc(O)c(O)c(O)c2)[C@@H]1OC(=O)c1cc(O)c(O)c(O)c1Oc1cc2c(c(O)c1O)-c1c(cc(O)c(O)c1O)C(=O)OC[C@@H]1O[C@@H](OC(=O)c3cc(O)c(O)c(O)c3)[C@@H](OC(=O)c3cc(O)c(O)c(O)c3)[C@@H](OC(=O)c3cc(O)c(O)c(O)c3)[C@@H]1OC2=O)c1cc(O)c(O)c(O)c1
Quantity: IC50
Observed Result: 39

Let us examine a further case.
The compound O=C(O)C1=C[C@@H](O)[C@@H](O)[C@H](OC(=O)c2cc(O)c(O)c(OC(=O)c3cc(O)c(O)c(O)c3)c2)C1 on Human immunodeficiency virus 1: IC50 was 40

----------
- Tested on: Human immunodeficiency virus 1
- Protocol: Therapeutic index was determined
- Stated Conditions: read-out: Therapeutic index
Parameter selectivity ratio: see the listing below.
Please state the value as a number alone, without comment.

Compound: O=C1O[C@H]2[C@H](OC(=O)c3cc(O)c(O)c(O)c3)[C@@H](OC(=O)c3cc(O)c(O)c4c3[C@@H]3C1=CC(=O)C(O)(O)C3(O)O4)[C@H](OC(=O)c1cc(O)c(O)c(O)c1)O[C@@H]2COC(=O)c1cc(O)c(O)c(O)c1 (stereo not given in full)
selectivity ratio: 1.9
--
Compound: O=C(O[C@H]1[C@H](O)C[C@](OC(=O)c2cc(O)c(O)c(O)c2)(C(=O)O)C[C@H]1O)c1cc(O)c(O)c(O)c1
selectivity ratio: 1.8
--
Compound: O=C(O)C1=C[C@@H](O)[C@@H](O)[C@H](OC(=O)c2cc(O)c(O)c(OC(=O)c3cc(O)c(O)c(O)c3)c2)C1
selectivity ratio: 1.3

Then this compound:
Reported selectivity ratio ( O=C1OCC2OC(=O)c3cc(O)c(O)c(O)c3-c3c(O)c(O)c(O)c4c3C(=O)OC(C2OC(=O)c2cc(O)c(O)c(O)c2-c2c1cc(O)c(O)c2O)C1OC(=O)c2c-4c(O)c(O)c(O)c2[C@@H]1[C@@]1(O)O[C@@H](CO)[C@@H](O)[C@H]1O (stereo not given in full) ) = 0.4

----------
- Tested on: Human immunodeficiency virus 1
- Protocol: Anti-HIV activity in cell culture assay expressed as IC50 values.
- Format: functional, organism-based
- Stated Conditions: Human immunodeficiency virus 1
Quantity: IC50

Study these solved cases before continuing.
Compound: O=C(O[C@@H]1Cc2c(O)cc(O)cc2O[C@@H]1c1ccc(O)c(O)c1)c1cc(O)c(O)c(O)c1 [EPICATECHIN GALLATE]
Test Target: Human immunodeficiency virus 1
Observed Result: > 25 µM
//
Compound: Oc1cc(O)c2c(c1)O[C@H](c1ccc(O)c(O)c1)[C@H](O)[C@H]2c1c(O)cc(O)c2c1O[C@@]1(c3ccc(O)c(O)c3)Oc3cc(O)c4c(c3[C@@H]2[C@H]1O)O[C@H](c1ccc(O)c(O)c1)[C@H](O)[C@H]4c1c(O)cc(O)c2c1O[C@H](c1ccc(O)c(O)c1)[C@H](O)C2
Test Target: Human immunodeficiency virus 1
Observed Result: > 25 µM

Summary for this compound, O=C(/C=C/c1ccc(O)c2c1[C@H](C(=O)O[C@H](Cc1ccc(O)c(O)c1)C(=O)O)[C@@H](c1ccc(O)c(O)c1)O2)O[C@H](Cc1ccc(O)c(O)c1)C(=O)O [MAGNESIUM LITHOSPERMATE B] : IC50 is > 25 µM

----------
- Test Target: Human immunodeficiency virus type 1 reverse transcriptase (Human immunodeficiency virus 1)
- Protocol: Inhibition against HIV- reverse transcriptase in cell culture at 20 ug/mL
Please mark Met if the recorded inhibition is equal to or greater than 40%, and Not met if it falls below.

A selection of reference data follows.
Compound: O=C(O[C@H]1[C@H](O)C[C@](OC(=O)c2cc(O)c(O)c(O)c2)(C(=O)O)C[C@H]1O)c1cc(O)c(O)c(O)c1
Category: Not met
--
Compound: Oc1cc(O)c2c(c1)O[C@@]1(c3ccc(O)c(O)c3)Oc3cc(O)c4c(c3[C@@H]2[C@H]1O)O[C@H](c1ccc(O)c(O)c1)[C@H](O)[C@H]4c1c(O)cc(O)c2c1O[C@H](c1ccc(O)c(O)c1)[C@H](O)C2 [CINNAMTANNIN B1]
Category: Not met

In: Check the entry O=C(OC[C@H]1O[C@@H](OC(=O)c2cc(O)c(O)c(O)c2)[C@H](OC(=O)c2cc(O)c(O)c(O)c2)[C@@H](O)[C@@H]1O)c1cc(O)c(O)c(O)c1 : does inhibition equal or exceed 40%?
Out: Not met

In: Could you tell me if the measured inhibition of O=C(O[C@@H]1O[C@@H]2COC(=O)c3cc(O)c(O)c(O)c3-c3c(cc(O)c(O)c3O)C(=O)O[C@H]([C@H]1O)[C@@H]2O)c1cc(O)c(O)c(O)c1 [CORILAGIN] reaches 40% or more?
Out: Met

In: Please check the record O=C1OCC2OC(=O)c3cc(O)c(O)c(O)c3-c3c(O)c(O)c(O)c4c3C(=O)OC(C2OC(=O)c2cc(O)c(O)c(O)c2-c2c1cc(O)c(O)c2O)C1OC(=O)c2c-4c(O)c(O)c(O)c2[C@@H]1[C@@]1(O)O[C@@H](CO)[C@@H](O)[C@H]1O (stereo partly specified) and state if its inhibition is at or above 40%.
Out: Not met

In: Exam item: decide whether the reported inhibition for O=C1OCC2OC(=O)c3cc(O)c(O)c(O)c3-c3c(O)c(O)c(O)c4c3C(=O)OC(C2OC(=O)c2cc(O)c(O)c(O)c2-c2c1cc(O)c(O)c2O)C1OC(=O)c2c-4c(O)c(O)c(O)c2[C@H]1O (stereo partly specified) is at least 40%.
Out: Met

----------
- System: Human immunodeficiency virus 1
- Protocol: Anti-HIV activity in cell culture assay expressed as IC50 values.
- Format: functional, organism-based
- Stated Conditions: Human immunodeficiency virus 1
Each record here notes measured IC50.

Illustrative cases are given below, each with its answer.
Smiles Text: Oc1cc(O)c2c(c1)O[C@@]1(c3ccc(O)c(O)c3)Oc3cc(O)c4c(c3[C@@H]2[C@H]1O)O[C@H](c1ccc(O)c(O)c1)[C@H](O)[C@H]4c1c(O)cc(O)c2c1O[C@H](c1ccc(O)c(O)c1)[C@H](O)C2
IC50: > 25 µM

Smiles Text: Oc1cc(O)c2c(c1)O[C@@]1(c3ccc(O)c(O)c3)Oc3cc(O)c4c(c3[C@@H]2[C@H]1O)O[C@H](c1ccc(O)c(O)c1)[C@H](O)C4
IC50: > 25 µM

Please examine the following record next.
The value of IC50 measured for the compound Oc1cc(O)c2c(c1)O[C@H](c1ccc(O)c(O)c1)[C@H](O)[C@H]2c1c(O)cc(O)c2c1O[C@H](c1ccc(O)c(O)c1)[C@H](O)[C@H]2c1c(O)cc(O)c2c1O[C@H](c1ccc(O)c(O)c1)[C@H](O)C2 turned out to be > 25 µM
